I'd appreciate it if you could supply hypusination signal, Mean (quantification from Figure 5A) values for the items below.
Target: DHPS (Homo sapiens)
Construct: host or cells: E. coli BL21 (DE3)
Sequence (P49366 whole entry): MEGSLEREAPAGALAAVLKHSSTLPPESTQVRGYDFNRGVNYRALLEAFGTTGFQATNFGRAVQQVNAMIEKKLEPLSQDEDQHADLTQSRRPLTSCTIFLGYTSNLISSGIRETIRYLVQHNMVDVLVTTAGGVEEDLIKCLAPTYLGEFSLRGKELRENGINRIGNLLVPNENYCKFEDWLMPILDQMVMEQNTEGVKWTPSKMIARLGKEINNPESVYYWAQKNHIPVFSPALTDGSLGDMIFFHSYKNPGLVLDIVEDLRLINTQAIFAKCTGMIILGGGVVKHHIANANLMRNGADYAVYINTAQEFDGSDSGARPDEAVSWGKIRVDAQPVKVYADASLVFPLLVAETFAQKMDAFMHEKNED
Assay: Hyp'Assay: cell-free eIF5A hypusination in 96-well plates (recombinant eIF5A, DHPS, DOHH; anti-hypusine antibody Hpu24), substance present in the DHPS step
Assay type: biochemical
Details: concentration 1 (no unit on page; Fig 5A 0 to 1 mM); 5 μM spermidine; control 98,5

Given the molecule N=C(N)NCCCCO [compound 1, 4-hydroxybutylguanidine] , what is its reported hypusination signal, Mean (quantification from Figure 5A)?
70,7

One more molecule: N=C(N)NCCCCCCCCO [compound 4, 8-hydroxyoctylguanidine]
109,4

Entry to check: N=C(N)NCCCCCCO [compound 2, 6-hydroxyhexylguanidine]
81,3

Would you kindly repeat that for N=C(N)NCCCCCCCO [compound 3, 7-hydroxyheptylguanidine] ?
75,7
